- test_summary: Single-dose pharmacokinetics and bioavailability after oral gavage administration of EK-ECP
- Assay type: in vivo, male Sprague–Dawley rats
- measurement_setup: male, Sprague-Dawley, rat, plasma; PO 1000 mg/kg EK-ECP, mean (CV); read-out: Vz/F
measure_name: Vd/F (L/kg)
Express the result in L/kg but write the number alone.

**Q:** May I ask what Vd/F has been recorded for Oc1cc(O)cc(Oc2c(O)cc(O)c3c2Oc2c(O)cc(Oc4c(O)cc(Oc5c(O)cc(O)c6c5Oc5c(O)cc(O)cc5O6)cc4O)cc2O3)c1 [dieckol] ?
**A:** 768

###

- test_summary: Single-dose pharmacokinetics and bioavailability after oral gavage administration of EK-ECP
- Type: in vivo, male Sprague–Dawley rats
- measurement_setup: male, Sprague-Dawley, rat, in vivo; PO 100 mg/kg EK-ECP, mean (CV)
measure_name: AUC(0-inf) (ng·h/mL)
Express your answer in ng·h/mL, writing the number without its unit.

**Q:** Param item = Oc1cc(O)cc(Oc2c(O)cc(O)c3c2Oc2c(cc(O)c(-c4c(O)cc5c(c4O)Oc4c(Oc6cc(O)cc(O)c6)c(O)cc(O)c4O5)c2O)O3)c1 [8,8′-bieckol] ; retrieve measured AUC(0-inf).
**A:** 44

###

- test_summary: Single-dose pharmacokinetics and bioavailability after oral gavage administration of EK-ECP
- Format: in vivo, male Sprague–Dawley rats
- measurement_setup: male, Sprague-Dawley, rat, plasma; PO 1000 mg/kg EK-ECP, mean (CV)
measure_name: MRT last (h)
Value expressed in h; do not type the unit.

**Q:** Fill in the blank: the reported MRT last of Oc1cc(O)cc(Oc2c(O)cc(O)c3c2Oc2c(O)cc(Oc4c(O)cc(Oc5c(O)cc(O)c6c5Oc5c(O)cc(O)cc5O6)cc4O)cc2O3)c1 is ____.
**A:** 7.67

###

- test_summary: Single-dose pharmacokinetics and bioavailability after oral gavage administration of EK-ECP
- Format: in vivo, male Sprague–Dawley rats
- measurement_setup: male, Sprague-Dawley, rat, in vivo; PO 1000 mg/kg EK-ECP, mean (CV)
measure_name: AUC(0-inf) (ng·h/mL)
Report only the number, with the unit ng·h/mL understood.

**Q:** Query: AUC(0-inf); subject: Oc1cc(O)cc(Oc2c(O)cc(O)c3c2Oc2c(cc(O)c(-c4c(O)cc5c(c4O)Oc4c(Oc6cc(O)cc(O)c6)c(O)cc(O)c4O5)c2O)O3)c1
**A:** 3210

###

- test_summary: Single-dose pharmacokinetics and bioavailability after oral gavage administration of EK-ECP
- Type: in vivo, male Sprague–Dawley rats
- measurement_setup: male, Sprague-Dawley, rat, in vivo; PO 1000 mg/kg EK-ECP, mean (CV)
- Method: EK-ECP was administered to male Sprague–Dawley rats by either IV bolus (Group 1, 10 mg/kg) or oral gavage (Groups 2, 3 or 4, at 10, 100 or 1000 mg/kg, respectively) administration. Blood collection intervals were pre dose (0), and 0.25, 0.5, 1, 2, 4, 6, 8, 12, 24 and 36 h post dose. Plasma samples were analyzed for concentrations of 8,8′-bieckol, dieckol, and PFF-A; all pre-dose sample results were less than the lower limit of quantitation (LLOQ < 1 ng/mL). […]
measure_name: MRT last

**Q:** Suppose we examine the compound Oc1cc(O)cc(Oc2c(O)cc(O)c3c2Oc2c(cc(O)c(-c4c(O)cc5c(c4O)Oc4c(Oc6cc(O)cc(O)c6)c(O)cc(O)c4O5)c2O)O3)c1 [8,8′-bieckol] ; what MRT last value has been reported?
**A:** 5.93 h
